# Lookup of reported DR/DR LNA keyed by entry
test: Probe fluorescence ratio response to linolenic acid relative to ADIFAB2; type: binding; conditions: response relative to ADIFAB2
Could you keep your reply to the number by itself?

// worked examples, DR/DR LNA included
* 21W 72A (protein, listed as Rattus norvegicus, PEPTIDE (1)...(131) wild-type rat intestinal fatty acid binding protein) AFDGTWKVDRNENYEKFMEKWGINVVKRKLGAHDNLKLTITQEGNKFTVKESSNFRNIDVVFELGVDFAYSAADGTELTGTWTMEGNKLVGKFKRVDNGKELIAVREISGNELIQTYTYEGVEAKRIFKKE | 2.550
* 49R1, 72A (protein, listed as Rattus norvegicus, PEPTIDE (1)...(131) wild-type rat intestinal fatty acid binding protein) AFDGTWKVDRNENYEKFMEKMGINVVKRKLGAHDNLKLTITQEGNKFTRKESSNFRNIDVVFELGVDFAYSAADGTELTGTWTMEGNKLVGKFKRVDNGKELIAVREISGNELIQTYTYEGVEAKRIFKKE | 1.70

From here, focus on the item given below.
Q: If you can, please state the reported DR/DR LNA value of 74A, 72A (protein, listed as Rattus norvegicus, PEPTIDE (1)...(131) wild-type rat intestinal fatty acid binding protein) AFDGTWKVDRNENYEKFMEKMGINVVKRKLGAHDNLKLTITQEGNKFTVKESSNFRNIDVVFELGVDFAYSAAAGTELTGTWTMEGNKLVGKFKRVDNGKELIAVREISGNELIQTYTYEGVEAKRIFKKE .
A: 1.42
